- Tested on: A375 cells, Mock
- ASSAY PROTOCOL: Proliferation of BacMAM-transduced A375 cells
- Format: cell-based
- MEASUREMENT CONDITIONS: Homo sapiens, A-375, read-out: IC50, inhibition of proliferation
MEASURED ENDPOINT: pIC50
Give only the number. pIC50 is defined as minus log10 of concentration in molar units.

Give pIC50 for the following compound: CC(C)(C)c1nc(-c2cccc(NS(=O)(=O)c3c(F)cccc3F)c2F)c(-c2ccnc(N)n2)s1 [Compound A]
7.52

====

- System: 16R6-3 (A375 F11 clone with acquired resistance to Compound A)
- ASSAY PROTOCOL: Cell growth inhibition assay (Cell Titer Glo, 3 days)
- Assay type: cell-based
- MEASUREMENT CONDITIONS: Homo sapiens, A-375, 72 h, 16R6-3: NRAS A146A/T, MEK1 P387P/S, single agent, read-out: IC50, Single Agent Effect, Compound A
MEASURED ENDPOINT: IC50

Give IC50 for the following compound: `CC(C)(C)c1nc(-c2cccc(NS(=O)(=O)c3c(F)cccc3F)c2F)c(-c2ccnc(N)n2)s1`
> 10 µM

====

- Test system: 16R5-5 (A375 F11 clone with acquired resistance to Compound A)
- ASSAY PROTOCOL: Cell growth inhibition assay (Cell Titer Glo, 3 days)
- Assay type: cell-based
- MEASUREMENT CONDITIONS: Homo sapiens, A-375, 72 h, Table 3, 16R5-5: NRAS Q61Q/K, MEK1 P387P/S, single agent, read-out: IC50, Single Agent, Compound C
MEASURED ENDPOINT: pIC50
Give only the number. pIC50 is defined as minus log10 of concentration in molar units.

Give pIC50 for the following molecule: COc1ncc(-c2ccc3nccc(-c4ccnnc4)c3c2)cc1NS(=O)(=O)c1ccc(F)cc1F [Compound C]
7.04

====

- Tested on: A375 cells expressing MEK1F129L
- ASSAY PROTOCOL: Proliferation of BacMAM-transduced A375 cells
- Assay type: cell-based
- MEASUREMENT CONDITIONS: Homo sapiens, A-375, read-out: IC50, inhibition of proliferation
- Method: BacMAM constructs were generated using MEK1 cDNA and mutations in MEK1 were introduced using site directed mutagenesis. BacMAM virus particles were prepared as described in the supplemental methods. A375 cells were transduced with the indicated BacMAM virus. Forty-eight hours post transduction, cells were plated for subsequent proliferation and western blot analysis as described above.
MEASURED ENDPOINT: IC50 (nM)
Number only, in nM; omit the unit.

Give IC50 for the following compound: CC(C)(C)c1nc(-c2cccc(NS(=O)(=O)c3c(F)cccc3F)c2F)c(-c2ccnc(N)n2)s1 [Compound A]
140

====

- Test system: 16R6-4 (A375 F11 clone with acquired resistance to Compound A)
- ASSAY PROTOCOL: Cell growth inhibition assay (Cell Titer Glo, 3 days)
- Type: cell-based
- MEASUREMENT CONDITIONS: Homo sapiens, A-375, 72 h, 16R6-4: NRAS Q61Q/K, A146A/T, MEK1 P387P/S, single agent, read-out: IC50, Single Agent Effect, Compound A
MEASURED ENDPOINT: IC50

Give IC50 for the following compound: `CC(C)(C)c1nc(-c2cccc(NS(=O)(=O)c3c(F)cccc3F)c2F)c(-c2ccnc(N)n2)s1`
> 10 µM
